EXPERIMENTAL_SYSTEM: HLA-A*24:03
MEASUREMENT_PROTOCOL: IEDB peptide-MHC binding, purified MHC/direct/fluorescence; filed as Kd, often an IC50 or EC50 that approximates it; bounds were set here for any values at or beyond the usual limits of such assays
CONDITIONS: source organism: Vibrio vulnificus CMCP6
pKd: −log10 of the molar value.
METRIC_NAME: pKd

### Prompt Query pKd on HLA-A*24:03 for "SVMSTFFWE"
### Response ≤ 4.70

====

EXPERIMENTAL_SYSTEM: HLA-A*26:01
MEASUREMENT_PROTOCOL: IEDB peptide-MHC binding, purified MHC/competitive/fluorescence; filed as Kd, often an IC50 or EC50 that approximates it; bounds were set here for any values at or beyond the usual limits of such assays
CONDITIONS: source organism: Orthomarburgvirus marburgense
METRIC_NAME: Kd (nM)
One number for each entry, in nM.

### Prompt Can you share its Kd? I mean this sequence: "FLMRNAIQY"
### Response 2580

====

EXPERIMENTAL_SYSTEM: HLA-A*68:02
MEASUREMENT_PROTOCOL: IEDB peptide-MHC binding, purified MHC/competitive/radioactivity; filed as Kd, often an IC50 or EC50 that approximates it; bounds were set here for any values at or beyond the usual limits of such assays
CONDITIONS: source organism: Dengue virus 4 Philippines/H241/1956
Exercise: state measured Kd for each of the sequences provided.
One number for each entry, in nM.

Examples with answers:
>>> value_observed("RTVFFVLMML")
17.9
>>> value_observed("MVIGMAMTTV")
3.27
>>> value_observed("MVTHFDNTQV")
9.99
>>> value_observed("LTFIRSTMPL")
19.8

Next sequence, Kd to be filled in.
### Prompt Can you share its Kd? I mean this sequence: "WTLYAVATTI"
### Response 10

====

EXPERIMENTAL_SYSTEM: HLA-B*15:01
MEASUREMENT_PROTOCOL: IEDB peptide-MHC binding, purified MHC/competitive/fluorescence; filed as Kd, often an IC50 or EC50 that approximates it; bounds were set here for any values at or beyond the usual limits of such assays
CONDITIONS: source organism: Variola major virus
METRIC_NAME: Kd (µM)
Give bare numbers, in µM.

### Prompt Can you share its Kd? I mean this sequence: "RYPGVMYAF"
### Response 3.62

====

EXPERIMENTAL_SYSTEM: HLA-A*26:01
MEASUREMENT_PROTOCOL: IEDB peptide-MHC binding, purified MHC/competitive/radioactivity; filed as Kd, often an IC50 or EC50 that approximates it; bounds were set here for any values at or beyond the usual limits of such assays
CONDITIONS: source organism: Dengue virus 4 Philippines/H241/1956
Exercise: state measured pKd for each of the sequences provided.
Answers are plain numbers, as −log10 of the molar value.

I have 2 sequences here; please give me pKd for each one.
1. LTFIRSTMPL
2. HTTERGGKAY

### Response
1. 5.13
2. 5.88

====

EXPERIMENTAL_SYSTEM: HLA-A*11:01
MEASUREMENT_PROTOCOL: IEDB peptide-MHC binding, purified MHC/direct/fluorescence; filed as Kd, often an IC50 or EC50 that approximates it; bounds were set here for any values at or beyond the usual limits of such assays
CONDITIONS: source organism: SARS-CoV1
pKd: −log10 of the molar value.
METRIC_NAME: pKd

### Prompt Can you share its pKd? I mean this sequence: "VQQESSFVM"
### Response ≤ 4.68

====

EXPERIMENTAL_SYSTEM: HLA-B*40:01
MEASUREMENT_PROTOCOL: IEDB peptide-MHC binding, purified MHC/competitive/radioactivity; filed as Kd, often an IC50 or EC50 that approximates it; bounds were set here for any values at or beyond the usual limits of such assays
CONDITIONS: source organism: Mammarenavirus guanaritoense
METRIC_NAME: Kd (nM)
Give bare numbers, in nM.

### Prompt Can you share its Kd? I mean this sequence: "YEERLNEQLL"
### Response 2480

====

EXPERIMENTAL_SYSTEM: HLA-B*51:01
MEASUREMENT_PROTOCOL: IEDB peptide-MHC binding, purified MHC/competitive/fluorescence; filed as Kd, often an IC50 or EC50 that approximates it; bounds were set here for any values at or beyond the usual limits of such assays
CONDITIONS: source organism: Campylobacter jejuni subsp. jejuni NCTC 11168 = ATCC 700819
METRIC_NAME: Kd

### Prompt Can you share its Kd? I mean this sequence: "AELIDSFTW"
### Response ≥ 20 µM

====

EXPERIMENTAL_SYSTEM: HLA-A*29:02
MEASUREMENT_PROTOCOL: IEDB peptide-MHC binding, purified MHC/competitive/radioactivity; filed as Kd, often an IC50 or EC50 that approximates it; bounds were set here for any values at or beyond the usual limits of such assays
CONDITIONS: source organism: Vaccinia virus WR
pKd: −log10 of the molar value.
METRIC_NAME: pKd

### Prompt Can you share its pKd? I mean this sequence: "GARVIWMDAY"
### Response ≤ 4.25

====

EXPERIMENTAL_SYSTEM: HLA-A*03:01
MEASUREMENT_PROTOCOL: IEDB peptide-MHC binding, purified MHC/competitive/fluorescence; filed as Kd, often an IC50 or EC50 that approximates it; bounds were set here for any values at or beyond the usual limits of such assays
CONDITIONS: source organism: Bacillus anthracis str. A0488
METRIC_NAME: pKd
One number for each entry, as −log10 of the molar value.

### Prompt Can you share its pKd? I mean this sequence: "RMLHLSQMH"
### Response 7.59

====

EXPERIMENTAL_SYSTEM: HLA-B*15:17
MEASUREMENT_PROTOCOL: IEDB peptide-MHC binding, purified MHC/competitive/fluorescence; filed as Kd, often an IC50 or EC50 that approximates it; bounds were set here for any values at or beyond the usual limits of such assays
CONDITIONS: source organism: Taterapox virus
METRIC_NAME: Kd

>>> value_observed("SYVFNFHKY")
"≥ 20 µM"

Next sequence, Kd to be filled in.
### Prompt Can you share its Kd? I mean this sequence: "NTDAFSREY"
### Response ≥ 20 µM

====

EXPERIMENTAL_SYSTEM: HLA-B*15:02
MEASUREMENT_PROTOCOL: IEDB peptide-MHC binding, purified MHC/direct/fluorescence; filed as Kd, often an IC50 or EC50 that approximates it; bounds were set here for any values at or beyond the usual limits of such assays
CONDITIONS: source organism: Convict Creek 107 virus
METRIC_NAME: pKd
Answers are plain numbers, as −log10 of the molar value.

### Prompt Can you share its pKd? I mean this sequence: "VLFKTESGF"
### Response 7.33

====

EXPERIMENTAL_SYSTEM: HLA-A*31:01
MEASUREMENT_PROTOCOL: IEDB peptide-MHC binding, purified MHC/competitive/fluorescence; filed as Kd, often an IC50 or EC50 that approximates it; bounds were set here for any values at or beyond the usual limits of such assays
CONDITIONS: source organism: Burkholderia mallei SAVP1
METRIC_NAME: pKd
Numbers only, as −log10 of the molar value.

### Prompt Can you share its pKd? I mean this sequence: "RFNAIWFNH"
### Response 8.39

====

EXPERIMENTAL_SYSTEM: HLA-B*40:01
MEASUREMENT_PROTOCOL: IEDB peptide-MHC binding, purified MHC/direct/fluorescence; filed as Kd, often an IC50 or EC50 that approximates it; bounds were set here for any values at or beyond the usual limits of such assays
CONDITIONS: source organism: Aracatuba virus
METRIC_NAME: Kd

### Prompt Query Kd on HLA-B*40:01 for "YKEPNSIIL"
### Response ≥ 20 µM

====

Exercise: state measured Kd for each of the sequences provided.
EXPERIMENTAL_SYSTEM: HLA-A*02:02
MEASUREMENT_PROTOCOL: IEDB peptide-MHC binding, purified MHC/competitive/radioactivity; filed as Kd, often an IC50 or EC50 that approximates it; bounds were set here for any values at or beyond the usual limits of such assays
CONDITIONS: source organism: Vaccinia virus WR
Give bare numbers, in nM.

I have 2 sequences here; please give me Kd for each one.
1. EVIGLTTHCT
2. VIKLVKSLV

### Response
1. 10500
2. 1030

I have 7 sequences here; please give me Kd for each one.
1. RLFTRCAVI
2. RISSSLDQT
3. RVSENTGMGM
4. VTKRDESSI
5. AAKTPVIVV
6. GANGSTAEQL
7. LLENKSLTIL

### Response
1. 93.8
2. 6790
3. 839
4. 8050
5. 1360
6. 7280
7. 185

I have 7 sequences here; please give me Kd for each one.
1. GLDERFVEEL
2. YAAEMVEYL
3. KTRLFRSPQV
4. NVFISPASI
5. AARLKRSAT
6. RIITILQDI
7. TILDDNLYKV

### Response
93
0.524
9270
202
12500
583
1080

I have 4 sequences here; please give me Kd for each one.
1. NITPDDGLGL
2. KTANNYETI
3. FLARKGIDT
4. CLLTDTIESA

### Response
[1910, 37.2, 1020, 53]

I have 3 sequences here; please give me Kd for each one.
1. NTDHPLSINV
2. HIKTIAVSV
3. SVMNFIPII

### Response
1: 388; 2: 3080; 3: 13.2

I have 6 sequences here; please give me Kd for each one.
1. IIYSKAGNIL
2. RIASILSLET
3. DMDFDLNIFM
4. ILKDPRIASI
5. SLTTIGTIA
6. LATLNTLITL

### Response
8.48
583
1150
3160
1.04
139

I have 4 sequences here; please give me Kd for each one.
1. YAGTIKESLL
2. ITRLEVIGL
3. FTSYKRFVT
4. DIMLPESDL

### Response
[1020, 5510, 2330, 18500]
